- subject-of-test: T1, Drosophila Numb PTB domain (aa 65–203) (Drosophila, UniProt P16554-1 65-203)
- T1 construct: Numb PTB domain, Drosophila, Uniprot P16554-1, aa 65-203; source: E. coli BL21 (DE3), purified (Ni2+-NTA, SEC); not shown: His tag, N-terminal, cleaved
- T1 sequence (looked up): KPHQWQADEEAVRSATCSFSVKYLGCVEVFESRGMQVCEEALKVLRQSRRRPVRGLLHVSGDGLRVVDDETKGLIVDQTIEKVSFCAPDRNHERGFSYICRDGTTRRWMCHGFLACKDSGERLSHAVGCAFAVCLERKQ
- experiment: ITC; ITC200, 20 °C, buffer A (50 mM Tris pH 8.0, 1 mM EDTA, 1 mM β-ME, 100 mM NaCl); Pon fragments (~0.5 mM) injected into PTB proteins (~0.05 mM); one-site binding model
- details: both partners purified
pKd: −log10 of the molar value. Square brackets hold non-standard residues; d marks the D form. Ends that are not written are not given here. pT = C[C@@H](OP(=O)(O)O)[C@H](N)C(=O)O
reported-property: pKd

binder="ESCFTNAAFSS[pT]PKK (Pon, Drosophila; stretch with the A1 motif FTNAAF (N57) followed by the phosphorylated threonine; limits worked out by setting the Asn of FTNAAF to N57 of the A1 motif; source: synthetic peptide (commercially synthesized)) [pPon peptide]" reported_property=pKd result=~4.96
